Overview of reported TGI across a group of compounds:
# Test system: SF-539 CNS
# test_summary: NCI tumour cell line growth inhibition, 48 h

{"structure_smiles_string": "CSc1ccc(-c2cn3ccsc3n2)c(O)c1", "TGI": "> 57.3 µM"}
{"structure_smiles_string": "CCN(Cc1ccc(F)cc1)c1ccc(CO)c(Cl)c1", "TGI": "35.1 µM"}
{"structure_smiles_string": "CC(C)=CCNc1ncnc2c1ncn2CCC(=O)OC(C)(C)C", "TGI": "> 100 µM"}
{"structure_smiles_string": "CCCSc1cc(Cl)c(C)cc1S(=O)(=O)n1cc[nH]c1=O", "TGI": "> 100 µM"}
